Where do the numbers come from? From patent US11787762B2.

target: HIF-2α (Homo sapiens, UniProt Q99814); construct: host or cells: 786-O cells stably transduced with Cignal Lenti HIF Luc Reporter (only the reporter was introduced, not HIF-2α); assay: HIF-2α luciferase reporter assay in HIF-Luc-786-O cells; format: cell-based; conditions: Table 2, 20 hours incubation
Sequence (Q99814 whole entry): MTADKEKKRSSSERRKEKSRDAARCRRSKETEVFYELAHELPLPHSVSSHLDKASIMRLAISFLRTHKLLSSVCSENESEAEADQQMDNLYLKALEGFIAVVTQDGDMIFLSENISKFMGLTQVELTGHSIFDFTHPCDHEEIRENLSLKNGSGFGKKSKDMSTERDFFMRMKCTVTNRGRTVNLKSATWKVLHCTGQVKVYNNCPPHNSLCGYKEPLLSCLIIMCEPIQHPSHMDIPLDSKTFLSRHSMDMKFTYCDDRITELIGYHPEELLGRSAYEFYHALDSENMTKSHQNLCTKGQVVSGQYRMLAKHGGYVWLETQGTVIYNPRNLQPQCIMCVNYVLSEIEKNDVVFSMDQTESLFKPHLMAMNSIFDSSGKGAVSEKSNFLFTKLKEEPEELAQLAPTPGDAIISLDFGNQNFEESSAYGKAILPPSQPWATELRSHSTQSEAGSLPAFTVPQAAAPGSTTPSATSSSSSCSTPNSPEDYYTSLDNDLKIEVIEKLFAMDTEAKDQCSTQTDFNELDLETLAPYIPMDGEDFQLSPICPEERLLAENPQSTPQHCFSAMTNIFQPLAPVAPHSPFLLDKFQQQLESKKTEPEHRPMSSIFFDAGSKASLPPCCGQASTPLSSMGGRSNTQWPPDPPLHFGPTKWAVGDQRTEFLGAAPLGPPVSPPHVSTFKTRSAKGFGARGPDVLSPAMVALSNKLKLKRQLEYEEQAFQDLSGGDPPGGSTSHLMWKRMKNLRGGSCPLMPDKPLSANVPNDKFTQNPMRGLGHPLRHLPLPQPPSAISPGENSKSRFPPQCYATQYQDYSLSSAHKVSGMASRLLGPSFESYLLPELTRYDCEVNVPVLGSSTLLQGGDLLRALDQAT
pIC50: −log10 of the molar value.
// reported pIC50 for each item listed
endpoint: pIC50

| structure | endpoint | recorded.result |
| --- | --- | --- |
| N#Cc1cc(F)cc2c1[C@@H](c1ccc(C(F)(F)F)c(Cl)c1C#N)CC[C@H]2F | pIC50 | 6.00 to 7.00 |
| CC(F)(F)c1ccc(N2CCC(F)(F)c3cc(F)cc(C#N)c32)c(C#N)c1F | pIC50 | > 7.00 |
| N#Cc1cc(F)cc2c1N(c1cnc(C(F)(F)F)c(F)c1Cl)CCC2(F)F | pIC50 | > 7.00 |
